Would you kindly list Kd for each of these sequences?
# System: HLA-B*53:01
# Experiment notes: IEDB peptide-MHC binding, purified MHC/competitive/radioactivity; filed as Kd, often an IC50 or EC50 that approximates it; bounds were set here for any values at or beyond the usual limits of such assays
# Condition label: source organism: Triticum aestivum
The reply should consist of the numeric value with the unit placed after it.

>  <Residue string>
IPEQSRCQAI

>  <Value>
519 nM

$$$$

Could you now consider this next sequence?
Kd measured on QPYLQLQPF = 478 nM

###

# System: HLA-B*46:01
# Experiment notes: IEDB peptide-MHC binding, purified MHC/competitive/fluorescence; filed as Kd, often an IC50 or EC50 that approximates it; bounds were set here for any values at or beyond the usual limits of such assays
# Condition label: source organism: Pan troglodytes
Readout name: Kd

Kd measured on YYFSYPLFV = ≥ 20 µM
